The entries below come with measured GI50 values attached.
tested on: SK-BR-3 (Her2 amp); assay: Growth inhibition GI50 in vitro (CCK8/MTT, 72 h); format: cell-based, human; details: Homo sapiens, SK-BR-3; HER2 positive cell line; range of GI50; read-out: GI50 SK-BR-3

Some entries whose results are on file:
• C=CC(=O)Nc1cc(Nc2cc(Nc3cccc(C(F)(F)F)c3)ncn2)c(OC)cc1N(C)CCN(C)C = 0.01 to 0.1 µM
• C=CC(=O)Nc1cc(Nc2cc(-c3cn(CCC)c4ccccc34)ncn2)c(OC)cc1N(C)CCN(C)C = 0.01 to 0.1 µM
• C=CC(=O)Nc1cc(Nc2ncnc(Nc3cccc(Cl)c3F)n2)c(OC)cc1N(C)CCN(C)C = 0.01 to 0.1 µM

// query Input C=CC(=O)Nc1cc(Nc2nccc(Nc3cc(OC)c(Cl)cc3Cl)n2)c(OC)cc1N(C)CCN(C)C , output reported GI50.
// result 0.1 to 1 µM

###

assay: Pharmacokinetics in rat; type: in vivo, Sprague-Dawley (SD) rats; settings: male, Sprague-Dawley, plasma; SD rat, iv 5 mg/kg, po 25 mg/kg, solvent water
RESULT_TYPE: bioavailability (%)

- C=CC(=O)Nc1cc(Nc2nccc(-n3ccc4ccc(F)cc43)n2)c(OC)cc1N(C)CCN(C)C [Compound 63]: 55.8
- C=CC(=O)Nc1cc(Nc2nccc(Nc3ccc(OCc4ccccn4)c(Cl)c3)n2)c(OC)cc1N(C)CCN(C)C [Compound 18]: 50.3

###

The entries below come with measured GI50 values attached.
system: AU565 (Her2 amp); experiment: Growth inhibition GI50 in vitro (CCK8/MTT, 72 h); assay type: cell-based, human; conditions: Homo sapiens, AU565; HER2 positive cell line; range of GI50; read-out: GI50 AU-565

Some entries whose results are on file:
• C=CC(=O)Nc1cc(Nc2cc(Nc3ccc(F)c(Cl)c3)ncn2)c(OC)cc1N1CCN(C)CC1 = 10 to 100 nM
• C=CC(=O)Nc1cc(Nc2ncnc(Nc3cccc(Br)c3)n2)c(OC)cc1N1CCCN(C)CC1 = < 10 nM
• C=CC(=O)Nc1cc(Nc2nccc(-n3ccc4ccccc43)n2)c(OC)cc1N(C)CCN(C)C = 10 to 100 nM
• C=CC(=O)Nc1cc(Nc2nccc(-n3ccc4cc(F)ccc43)n2)c(OC)cc1N(C)CCN(C)C = 100 to 1000 nM

// query Under AU565 (Her2 amp), report GI50 for C=CC(=O)Nc1cc(Nc2nccc(-n3ccc4ccc(OC)cc43)n2)c(OC)cc1N(C)CCN(C)C
// result 100 to 1000 nM

// query Under AU565 (Her2 amp), report GI50 for C=CC(=O)Nc1cc(Nc2ncnc(Nc3cccc(Br)c3)n2)c(OC)cc1N1CCC(N2CCCCC2)CC1
// result < 10 nM

// query Under AU565 (Her2 amp), report GI50 for C=CC(=O)Nc1cc(Nc2cc(Nc3cc(F)cc(Br)c3)ncn2)c(OC)cc1N(C)CCN(C)C
// result < 10 nM

###

The entries below come with measured GI50 values attached.
system: N87 (HER2 Amp); experiment: Growth inhibition GI50 in vitro (CCK8/MTT, 72 h); type: cell-based, human; settings: Homo sapiens; N87, EGFR wt, Her2 amp; read-out: GI50
Give the quantity in nM, number only.

Some entries whose results are on file:
* C=CC(=O)Nc1cc(Nc2nccc(Nc3cccc(Cl)c3)n2)c(OC)cc1N(C)CCN(C)C [Compound 2] | 10
* C=CC(=O)Nc1cc(Nc2nccc(-c3cn(C)c4ccccc34)n2)c(OC)cc1N(C)CCN(C)C [AZD9291, reference compound] | 234
* C=CC(=O)Nc1cc(Nc2cc(Nc3ccc(F)c(Cl)c3)ncn2)c(OC)cc1N(C)CCN(C)C [Compound 140] | 4.8
* C=CC(=O)Nc1cc(Nc2nccc(Nc3ccc(OCc4ccccn4)c(Cl)c3)n2)c(OC)cc1N(C)CCN(C)C [Compound 18] | 19.5
* C=CC(=O)Nc1cc(Nc2nccc(-n3cnc4ccccc43)n2)c(OC)cc1N(C)CCN(C)C [Compound 106] | 23.6
* C=CC(=O)Nc1cc(Nc2ncnc(Nc3cccc(F)c3)n2)c(OC)cc1N(C)CCN(C)C [Compound 114] | 4.8
* C=CC(=O)Nc1cc(Nc2ncnc(Nc3cccc(Br)c3)n2)c(OC)cc1N1CCC(N2CCCC2)CC1 [Compound 118] | 4.8
* C=CC(=O)Nc1cc(Nc2cc(-c3cn(C(C)C)c4ccccc34)ncn2)c(OC)cc1N(C)CCN(C)C [Compound 183] | 19.5

// query Input C=CC(=O)Nc1cc(Nc2cc(Nc3ccc(F)c(Cl)c3)ncn2)c(OC)cc1N1CCN(C2CCN(C)CC2)CC1 [Compound 147] , output reported GI50.
// result 4.8

// query Input C=CC(=O)Nc1cc(Nc2ncc(Cl)c(Nc3ccc(OCc4ccccn4)c(Cl)c3)n2)c(OC)cc1N(C)CCN(C)C [Compound 19] , output reported GI50.
// result 19.5
